assay: Antiproliferative activity against human Mino cells preincubated for 48 hrs followed by thymidine addition measure after 16 hrs by Thymidine incorporation assay; type: functional, cell-based
Endpoint: IC50 (µM)

CSCCOP(=O)(NCCc1c[nH]c2ccccc12)OC[C@H]1O[C@@H](n2c[n+](CCOc3ccc(Cl)cc3)c3c(=O)[nH]c(N)nc32)[C@H](O)[C@@H]1O (stereo partly specified) :: 50

====

Measured half-life at 80 µM, listed per entry for reference.
experiment: Half life in HEPES buffer at 80 uM at pH 2 by RP-HPLC analysis; type: physicochemical
Endpoint: half-life at 80 µM (h)

CSCCCCOP(=O)(NCCc1c[nH]c2ccccc12)OC[C@H]1O[C@@H](n2c[n+](CCOc3ccc(Cl)cc3)c3c(=O)[nH]c(N)nc32)[C@H](O)[C@@H]1O (some centres not stated) :: 13
CSCCOP(=O)(NCCc1c[nH]c2ccccc12)OC[C@H]1O[C@@H](n2c[n+](CCOc3ccc(Cl)cc3)c3c(=O)[nH]c(N)nc32)[C@H](O)[C@@H]1O (some centres not stated) :: 5

====

assay: Oral bioavailability in Sprague-Dawley rat at 25 mg/kg by LC-MS/MS analysis; format: ADME, organism-based; details: in vivo
Endpoint: bioavailability (%)

CSCCOP(=O)(NCCc1c[nH]c2ccccc12)OC[C@H]1O[C@@H](n2c[n+](CCOc3ccc(Cl)cc3)c3c(=O)[nH]c(N)nc32)[C@H](O)[C@@H]1O (some centres not stated) :: 23

====

experiment: Volume of distribution in Sprague-Dawley rat at 2.5 mg/kg, iv by LC-MS/MS analysis; format: ADME, organism-based; settings: in vivo
Reported Vd values for the following compounds.
Endpoint: Vd (L/kg)

Nc1nc2c(c(=O)[nH]1)[n+](CCOc1ccc(Cl)cc1)cn2[C@@H]1O[C@H](COP(=O)(O)NCCc2c[nH]c3ccccc23)[C@@H](O)[C@H]1O :: 70
CSCCOP(=O)(NCCc1c[nH]c2ccccc12)OC[C@H]1O[C@@H](n2c[n+](CCOc3ccc(Cl)cc3)c3c(=O)[nH]c(N)nc32)[C@H](O)[C@@H]1O (some centres not stated) :: 205

====

Listing of entries alongside the reported AUC(0-t) at 8 h.
test: AUC (0 to 8 hrs) in Sprague-Dawley rat plasma at 25 mg/kg, po by LC-MS/MS analysis; assay type: ADME, organism-based; set-up: time < 8 hr, dose 25 mg/kg, route oral
Endpoint: AUC(0-t) at 8 h (ng·h/mL)

CSCCOP(=O)(NCCc1c[nH]c2ccccc12)OC[C@H]1O[C@@H](n2c[n+](CCOc3ccc(Cl)cc3)c3c(=O)[nH]c(N)nc32)[C@H](O)[C@@H]1O (some centres not stated) :: 28.3
Nc1nc2c(c(=O)[nH]1)[n+](CCOc1ccc(Cl)cc1)cn2[C@@H]1O[C@H](COP(=O)(O)NCCc2c[nH]c3ccccc23)[C@@H](O)[C@H]1O :: 31.7

====

experiment: Antiproliferative activity against human Mino cells after 48 hrs by Annexin V/propidium iodide based flow cytometric analysis; format: functional, cell-based
pIC50: −log10 of the molar value.
Endpoint: pIC50

CSCCOP(=O)(NCCc1c[nH]c2ccccc12)OC[C@H]1O[C@@H](n2c[n+](CCOc3ccc(Cl)cc3)c3c(=O)[nH]c(N)nc32)[C@H](O)[C@@H]1O (stereo partly specified) :: < 3.70

====

assay: Cmax in Sprague-Dawley rat at 25 mg/kg, po measured at 30 mins post dose by LC-MS/MS analysis; type: ADME, organism-based; set-up: dose 25 mg/kg, route oral; conditions: in vivo
Endpoint: Cmax (ng/mL)

CSCCOP(=O)(NCCc1c[nH]c2ccccc12)OC[C@H]1O[C@@H](n2c[n+](CCOc3ccc(Cl)cc3)c3c(=O)[nH]c(N)nc32)[C@H](O)[C@@H]1O (stereo partly specified) :: 5

====

assay: AUC (0 to 8 hrs) in Sprague-Dawley rat plasma at 2.5 mg/kg, iv by LC-MS/MS analysis; type: ADME, organism-based; design: time < 8 hr, dose 2.5 mg/kg, route intravenous
Endpoint: AUC(0-t) at 8 h (ng·h/mL)

Nc1nc2c(c(=O)[nH]1)[n+](CCOc1ccc(Cl)cc1)cn2[C@@H]1O[C@H](COP(=O)(O)NCCc2c[nH]c3ccccc23)[C@@H](O)[C@H]1O :: 147
CSCCOP(=O)(NCCc1c[nH]c2ccccc12)OC[C@H]1O[C@@H](n2c[n+](CCOc3ccc(Cl)cc3)c3c(=O)[nH]c(N)nc32)[C@H](O)[C@@H]1O (some centres not stated) :: 23.3

====

test: Clearance in Sprague-Dawley rat at 2.5 mg/kg, iv by LC-MS/MS analysis; assay type: ADME, organism-based; settings: Sprague-Dawley, in vivo
Endpoint: clearance (mL/min/kg)

Nc1nc2c(c(=O)[nH]1)[n+](CCOc1ccc(Cl)cc1)cn2[C@@H]1O[C@H](COP(=O)(O)NCCc2c[nH]c3ccccc23)[C@@H](O)[C@H]1O :: 300

====

assay: Half life in Sprague-Dawley rat at 2.5 mg/kg, iv by LC-MS/MS analysis; format: ADME, organism-based; settings: in vivo
# half-life per entry
Endpoint: half-life (h)

CSCCOP(=O)(NCCc1c[nH]c2ccccc12)OC[C@H]1O[C@@H](n2c[n+](CCOc3ccc(Cl)cc3)c3c(=O)[nH]c(N)nc32)[C@H](O)[C@@H]1O (some centres not stated) :: 1.32
Nc1nc2c(c(=O)[nH]1)[n+](CCOc1ccc(Cl)cc1)cn2[C@@H]1O[C@H](COP(=O)(O)NCCc2c[nH]c3ccccc23)[C@@H](O)[C@H]1O :: 2.72

====

assay: Half life in HEPES buffer at 80 uM at pH 7.2 by RP-HPLC analysis; assay type: physicochemical
Recorded half-life at 80 µM, one value per entry.
Endpoint: half-life at 80 µM (h)

CSCCOP(=O)(NCCc1c[nH]c2ccccc12)OC[C@H]1O[C@@H](n2c[n+](CCOc3ccc(Cl)cc3)c3c(=O)[nH]c(N)nc32)[C@H](O)[C@@H]1O (stereo partly drawn) :: 8.5
CSCCCCOP(=O)(NCCc1c[nH]c2ccccc12)OC[C@H]1O[C@@H](n2c[n+](CCOc3ccc(Cl)cc3)c3c(=O)[nH]c(N)nc32)[C@H](O)[C@@H]1O (stereo partly drawn) :: 10.4
